system-under-test: T1, alphaVbeta3 integrin, native human, on rhabdomyosarcoma (RD) cells and on human umbilical vein endothelial … (human, UniProt P06756 31-1048; P05106 27-788)
T1 construct: whole, on cells; also called αVβ3; native human β3
T1 sequence (P06756 31-1048, chain 1 of 2): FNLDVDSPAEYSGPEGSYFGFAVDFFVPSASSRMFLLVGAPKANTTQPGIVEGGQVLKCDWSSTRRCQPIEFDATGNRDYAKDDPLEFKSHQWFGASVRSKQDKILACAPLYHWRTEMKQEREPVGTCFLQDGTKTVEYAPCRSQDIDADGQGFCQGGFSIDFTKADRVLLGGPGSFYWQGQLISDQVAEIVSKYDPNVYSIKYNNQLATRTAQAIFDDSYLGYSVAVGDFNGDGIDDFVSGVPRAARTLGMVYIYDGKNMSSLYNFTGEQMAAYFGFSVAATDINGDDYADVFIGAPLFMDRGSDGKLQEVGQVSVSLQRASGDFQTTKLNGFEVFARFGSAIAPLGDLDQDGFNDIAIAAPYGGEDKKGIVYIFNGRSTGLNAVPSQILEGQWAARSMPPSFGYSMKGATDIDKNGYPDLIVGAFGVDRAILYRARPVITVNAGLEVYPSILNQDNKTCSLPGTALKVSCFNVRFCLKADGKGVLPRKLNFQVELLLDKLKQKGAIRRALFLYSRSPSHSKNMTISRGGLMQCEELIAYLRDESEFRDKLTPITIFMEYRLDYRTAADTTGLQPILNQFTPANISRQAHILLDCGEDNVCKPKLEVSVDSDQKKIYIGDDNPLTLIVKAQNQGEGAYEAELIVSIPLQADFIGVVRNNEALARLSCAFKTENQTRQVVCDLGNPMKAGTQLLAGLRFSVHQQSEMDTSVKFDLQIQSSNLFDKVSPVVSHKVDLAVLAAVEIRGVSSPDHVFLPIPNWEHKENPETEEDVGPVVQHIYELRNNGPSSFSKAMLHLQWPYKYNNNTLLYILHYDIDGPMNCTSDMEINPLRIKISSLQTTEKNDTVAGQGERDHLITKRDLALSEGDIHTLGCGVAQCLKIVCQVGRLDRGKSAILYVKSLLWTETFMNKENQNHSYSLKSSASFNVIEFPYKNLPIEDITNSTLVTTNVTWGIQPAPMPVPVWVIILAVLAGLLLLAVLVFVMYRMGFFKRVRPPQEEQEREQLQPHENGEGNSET
T1 sequence (P05106 27-788, chain 2 of 2): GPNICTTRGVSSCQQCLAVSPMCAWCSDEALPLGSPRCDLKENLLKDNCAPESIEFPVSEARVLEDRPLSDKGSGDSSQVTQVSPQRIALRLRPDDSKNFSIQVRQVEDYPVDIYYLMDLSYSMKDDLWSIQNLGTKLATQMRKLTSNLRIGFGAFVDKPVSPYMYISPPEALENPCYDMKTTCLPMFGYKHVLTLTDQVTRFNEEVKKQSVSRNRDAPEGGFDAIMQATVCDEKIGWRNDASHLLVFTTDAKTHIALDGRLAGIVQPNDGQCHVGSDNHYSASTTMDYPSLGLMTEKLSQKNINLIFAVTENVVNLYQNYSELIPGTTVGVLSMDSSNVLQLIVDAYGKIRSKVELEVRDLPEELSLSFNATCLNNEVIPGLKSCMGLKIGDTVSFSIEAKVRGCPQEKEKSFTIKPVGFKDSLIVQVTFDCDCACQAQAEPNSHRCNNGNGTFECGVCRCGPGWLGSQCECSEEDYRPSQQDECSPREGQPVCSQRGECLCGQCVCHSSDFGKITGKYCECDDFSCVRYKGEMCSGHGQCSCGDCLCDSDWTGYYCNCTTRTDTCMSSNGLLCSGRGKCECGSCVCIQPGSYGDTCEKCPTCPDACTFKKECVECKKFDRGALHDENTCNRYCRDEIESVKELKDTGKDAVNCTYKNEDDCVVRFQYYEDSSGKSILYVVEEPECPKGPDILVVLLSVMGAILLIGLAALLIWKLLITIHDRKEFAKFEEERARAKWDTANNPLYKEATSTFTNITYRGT
assay-notes: flow cytometry on RD cells expressing alphaVbeta3; reference chimeric HLMC
The entries below come with measured relative binding score (EC50 of variant divided by EC50 of chimeric HLMC) values attached.
Your answer is read as ratio, so omit the unit and give the number.

VH1/Vκ2 Composite Human Antibody variant of HLMC (antibody, human IgG1, kappa, V domains shown, also called VH1/Vk2) VH: QAQLVQSGPELKKPGASVKVSCKASGYLFSNSWMNWVKQRPGAGLEWIGRIFPGDGDTNYNGKFKGRATITADKSTSTAYMELSSLRSEDSAVYFCARWGLTRDRRLYLDYWGQGTTVTVSS VL: DIVMTQSPDSLAVSLGERATINCKSSQSLLYSSNQKNYLAWYQQKPGQAPRLLIYWASTRESGVPDRFTGSGSGTDFTLTISSLQAEDVAVYYCKQYYTYPLTFGQGTKLEIKR : 1.52

Qu. Would you kindly share the measured relative binding score (EC50 of variant divided by EC50 of chimeric HLMC) for VH3/Vκ1 Composite Human Antibody variant of HLMC (antibody, human IgG1, kappa, V domains shown, also called VH3/Vk1) VH: QAQLVQSGAEVKKPGASVKVSCKASGYLFSNSWMNWVKQRRGAGLEWIGRIFPGDGDTNYNGKFKGRATITADKSTSTAYMELSSLRSEDTAVYFCARWGLTRDRRLYLDYWGQGTTVTVSS VL: DIVMTQSPDSLVVSLGERATINCKSSQSLLYSSNQKNYLAWYQQKSGQAPRLLIYWASTRESGVPDRFTGSGSGTDFTLTISSLQAEDVAVYYCKQYYTYPLTFGQGTKLEIKR ?
Ans. 1.35

Qu. // query: VH2/Vκ1 Composite Human Antibody variant of HLMC (antibody, human IgG1, kappa, V domains shown, also called VH2/Vk1) VH: QAQLVQSGPEVKKPGASVKVSCKASGYLFSNSWMNWVKQRPGAGLEWIGRIFPGDGDTNYNGKFKGRATITADKSTSTAYMELSSLRSEDTAVYFCARWGLTRDRRLYLDYWGQGTTVTVSS VL: DIVMTQSPDSLVVSLGERATINCKSSQSLLYSSNQKNYLAWYQQKSGQAPRLLIYWASTRESGVPDRFTGSGSGTDFTLTISSLQAEDVAVYYCKQYYTYPLTFGQGTKLEIKR
Ans. 1.27

The reported measurements were obtained from patent US20150259422A1.
